test system: SK-MEL-28 melanoma; experiment: NCI tumour cell line growth inhibition, 48 h
Parameter Measured: TGI

Form field: reported TGI of CC(Oc1ccc2c(=O)cc(-c3ccccc3)oc2c1)C(=O)O (stereo unspecified) > 100 µM

Next molecule up: CC1=NC(=O)CNN1C1=NNC2(C(=O)N1)c1ccccc1-c1ccccc12 > 100 µM

Next molecule up: COc1cc(C(=O)c2cnc(-c3ccc4cc[nH]c4c3)[nH]2)cc(OC)c1OC 16 µM

Next molecule up: COc1c(N2CCCCC2)c2c(=O)c3ccccc3oc2c2c3ccccc3n(C)c12 > 100 µM

Next molecule up: COC(=O)/C(=N\Nc1nc(=S)[nH]n1N)C(C#N)c1ccc(Cl)cc1 (stereo unspecified) > 100 µM

* * *

Property: GI50; scope: individual molecules
system: SF-295 CNS; assay: NCI tumour cell line growth inhibition, 48 h

Molecule | Measurement Target | GI50
CCOP(=O)(OCC)C(NC(c1ccccc1)c1ccccc1)c1ccsc1 (stereo not given) | SF-295 CNS | 18.4 µM
Cc1c(C(=O)/C=C/c2ccc(Cl)cc2)nnn1-c1ccnc2c(C(F)(F)F)cccc12 | SF-295 CNS | 26.9 µM
COc1ccc(C(=O)/C=C/c2c(C(F)(F)F)nc3ccccn23)cc1OC | SF-295 CNS | 3.15 µM
COc1ccccc1-c1ccc2c(N)c(C(=O)c3ccc4c(c3)OCO4)sc2n1 | SF-295 CNS | 3.98 µM
COc1ccc2[nH]cc(Cc3c[nH]c4ccc(OC)cc34)c2c1 | SF-295 CNS | 16.6 µM
O=C(Nc1cccc(-n2ccc3c(NC(=O)c4ccccc4)nccc32)c1)c1ccc(Cl)c(Cl)c1 | SF-295 CNS | 0.0645 µM
Oc1ccccc1/C=N\Nc1ccccc1 | SF-295 CNS | 1.63 µM
O=C(CCN1CCCC1)Nc1ccc2c(Nc3ccc(Br)cc3)c3ccccc3nc2c1 | SF-295 CNS | 1.59 µM
Cn1c2ccccc2c2c(=O)n(CCCC(=O)NCCc3cnc[nH]3)c3c(-c4ccccc4)nnn3c21 | SF-295 CNS | 9.18 µM

GI50 of CN(C)c1ccc2cc3c(cc2c1)Oc1ccccc1N3.[Cl][Zn][Cl] on SF-295 CNS? 18 µM

* * *

Property: GI50; scope: individual compounds
tested on: U251 CNS

# annotated cases, reported GI50 shown
Compound | Measurement Target | Parameter Measured | Experimental Result
O=C(C(=O)c1cccnc1)c1cccnc1 | U251 CNS | GI50 | > 100 µM
O=C(CS(=O)c1nc2ccccc2nc1-c1ccccc1)Nc1ccc(Cl)cc1 (stereo not given) | U251 CNS | GI50 | 21.8 µM
CCN(CC)CCNc1ccc(N=Nc2cnc3ccccc3c2)c2ccccc12 | U251 CNS | GI50 | 1.7 µM
CCN(CC)CCOc1ccc(NC(=O)C(C(C)C)N2C(=O)/C(=C/c3ccc(Br)cc3)SC2=S)cc1 (stereo not given) | U251 CNS | GI50 | 1.94 µM

API: the following record is the query input.
Form field: reported GI50 of COC(=O)c1cc2c([nH]c3ccccc32)c(-c2nc3ccccc3cc2CO)n1 7.1 µM

* * *

Property: TGI; scope: individual molecules
test system: HOP-62 NSCLC; assay: NCI tumour cell line growth inhibition, 48 h
Write the answer as a number in µM, unit excluded.

Molecule | Measurement Target | TGI / µM
C=C(C)C1CC=C(C)C(O)([C@@]2(O)C[C@H](C(=C)C)CC=C2C)C1 (stereo not given in full) | HOP-62 NSCLC | 35
CC(=O)c1ccc(Nc2nc3ccccc3c3occc23)cc1 | HOP-62 NSCLC | 36.2
CCN(CC)CCC(=O)Nc1ccc2sc3ccccc3c(=O)c2n1 | HOP-62 NSCLC | 37.8

API: the following record is the query input.
Form field: reported TGI of C[N+]1(C)C/C(=C\C=C\c2ccccc2)C(=O)/C(=C/C=C/c2ccccc2)C1 46.3
